Assign Kd to each entry below.
Biological target: T1, EsCas13d, nuclease-dead (Eubacterium siraeum, UniProt B0MS50, R295A;H300A;R849A;H854A)
T1 sequence: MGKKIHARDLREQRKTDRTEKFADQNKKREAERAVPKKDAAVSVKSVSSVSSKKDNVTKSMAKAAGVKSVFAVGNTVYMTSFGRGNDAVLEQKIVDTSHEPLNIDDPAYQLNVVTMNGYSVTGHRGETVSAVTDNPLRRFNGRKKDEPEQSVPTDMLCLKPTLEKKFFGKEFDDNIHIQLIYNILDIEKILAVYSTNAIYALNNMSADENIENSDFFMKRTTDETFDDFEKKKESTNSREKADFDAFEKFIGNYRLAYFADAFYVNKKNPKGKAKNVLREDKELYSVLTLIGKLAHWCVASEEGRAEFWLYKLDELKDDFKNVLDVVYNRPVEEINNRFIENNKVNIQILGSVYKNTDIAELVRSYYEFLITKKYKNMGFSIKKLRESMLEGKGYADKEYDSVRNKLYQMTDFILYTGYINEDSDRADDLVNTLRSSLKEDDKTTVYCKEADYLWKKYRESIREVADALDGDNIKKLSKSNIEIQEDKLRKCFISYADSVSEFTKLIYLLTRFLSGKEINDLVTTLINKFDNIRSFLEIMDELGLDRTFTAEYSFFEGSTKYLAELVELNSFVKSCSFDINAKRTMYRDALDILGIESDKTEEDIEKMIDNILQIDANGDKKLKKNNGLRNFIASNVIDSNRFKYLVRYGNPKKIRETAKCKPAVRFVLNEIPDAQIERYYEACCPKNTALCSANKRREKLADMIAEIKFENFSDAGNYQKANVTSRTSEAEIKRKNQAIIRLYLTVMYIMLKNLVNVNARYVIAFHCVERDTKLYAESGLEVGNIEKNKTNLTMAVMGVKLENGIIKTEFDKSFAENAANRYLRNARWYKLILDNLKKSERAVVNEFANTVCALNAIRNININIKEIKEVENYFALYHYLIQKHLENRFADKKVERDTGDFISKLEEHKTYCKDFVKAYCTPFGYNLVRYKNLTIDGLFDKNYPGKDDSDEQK
Experiment: crRNA (strand 1, pre-loaded); Mg2+; 40 mM Tris-HCl pH 7.5, 150 mM NaCl, 6 mM MgCl2, 1 mM DTT, 0.1% Tween-20, 0.2 mg/ml BSA; 25 C; 10 min per concentration, then washed
Details: tags: His6-TwinStrep-SUMO cleaved; N-terminal SNAP kept (SNAP-Surface 488); label: 3' end held by stalled T7 RNA polymerase
Give bare numbers, in nM.

Worked cases, answers included:
binder="target 2 MT 5'PFS GCC 3'PFS UAU (mixed) RNA 1: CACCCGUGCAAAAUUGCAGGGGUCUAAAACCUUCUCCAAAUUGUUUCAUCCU RNA 2: GGGAAUGGAUCCACAUCUACGAAUUCGCCAGGAUGAAACAAUUUGGAGAAGUAUAGAUCGGAAGAGCACACGU" measurementtype=Kd reportedvalue=22
binder="target 2 MT 5'PFS GCG 3'PFS AUC (mixed) RNA 1: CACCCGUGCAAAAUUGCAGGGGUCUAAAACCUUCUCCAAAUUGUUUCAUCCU RNA 2: GGGAAUGGAUCCACAUCUACGAAUUCGCGAGGAUGAAACAAUUUGGAGAAGAUCAGAUCGGAAGAGCACACGU" measurementtype=Kd reportedvalue=10.1
binder="target 1 insU 3' of 20,insG 3' of 3 (mixed) RNA 1: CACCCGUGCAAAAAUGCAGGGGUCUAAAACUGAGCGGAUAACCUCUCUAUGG RNA 2: GGGAAUGGAUCCACAUCUACGAAUUCGUACCAUUAGAGAGGUUAUCCGCUGCACCGAGAUCGGAAGAGCACACGU" measurementtype=Kd reportedvalue=9.4
binder="target 1 insG 3' of 7,insA 3' of 3 (mixed) RNA 1: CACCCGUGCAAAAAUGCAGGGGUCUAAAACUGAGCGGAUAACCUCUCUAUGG RNA 2: GGGAAUGGAUCCACAUCUACGAAUUCGUACCAUAGAGAGGUUAUCGCGCUACACCGAGAUCGGAAGAGCACACGU" measurementtype=Kd reportedvalue=5.85
binder="target 2 MT 5'PFS AUA 3'PFS ACG (mixed) RNA 1: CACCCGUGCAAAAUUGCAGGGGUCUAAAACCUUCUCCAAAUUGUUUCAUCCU RNA 2: GGGAAUGGAUCCACAUCUACGAAUUCAUAAGGAUGAAACAAUUUGGAGAAGACGAGAUCGGAAGAGCACACGU" measurementtype=Kd reportedvalue=14
binder="target 1 U10A,C21A (mixed) RNA 1: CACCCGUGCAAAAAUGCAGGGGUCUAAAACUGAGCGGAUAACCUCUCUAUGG RNA 2: GGGAAUGGAUCCACAUCUACGAAUUCGUACAAUAGAGAGGUAAUCCGCUCACCGAGAUCGGAAGAGCACACGU" measurementtype=Kd reportedvalue=33
binder="target 1 insG 3' of 8,insA 3' of 8 (mixed) RNA 1: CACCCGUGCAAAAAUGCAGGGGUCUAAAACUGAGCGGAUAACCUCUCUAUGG RNA 2: GGGAAUGGAUCCACAUCUACGAAUUCGUACCAUAGAGAGGUUAUGACCGCUCACCGAGAUCGGAAGAGCACACGU" measurementtype=Kd reportedvalue=27.2

With those in mind, consider the next binder.
[Q] Item under review: target 1 insC 3' of 13,insC 3' of 9 (mixed) RNA 1: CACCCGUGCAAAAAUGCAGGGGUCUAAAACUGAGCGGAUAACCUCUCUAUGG RNA 2: GGGAAUGGAUCCACAUCUACGAAUUCGUACCAUAGAGAGCGUUACUCCGCUCACCGAGAUCGGAAGAGCACACGU . Reported Kd?
[A] 17.9

Values compiled from paper PMC10786891.
